Biological target: UniProtKB P29597
Sequence (P29597 whole entry): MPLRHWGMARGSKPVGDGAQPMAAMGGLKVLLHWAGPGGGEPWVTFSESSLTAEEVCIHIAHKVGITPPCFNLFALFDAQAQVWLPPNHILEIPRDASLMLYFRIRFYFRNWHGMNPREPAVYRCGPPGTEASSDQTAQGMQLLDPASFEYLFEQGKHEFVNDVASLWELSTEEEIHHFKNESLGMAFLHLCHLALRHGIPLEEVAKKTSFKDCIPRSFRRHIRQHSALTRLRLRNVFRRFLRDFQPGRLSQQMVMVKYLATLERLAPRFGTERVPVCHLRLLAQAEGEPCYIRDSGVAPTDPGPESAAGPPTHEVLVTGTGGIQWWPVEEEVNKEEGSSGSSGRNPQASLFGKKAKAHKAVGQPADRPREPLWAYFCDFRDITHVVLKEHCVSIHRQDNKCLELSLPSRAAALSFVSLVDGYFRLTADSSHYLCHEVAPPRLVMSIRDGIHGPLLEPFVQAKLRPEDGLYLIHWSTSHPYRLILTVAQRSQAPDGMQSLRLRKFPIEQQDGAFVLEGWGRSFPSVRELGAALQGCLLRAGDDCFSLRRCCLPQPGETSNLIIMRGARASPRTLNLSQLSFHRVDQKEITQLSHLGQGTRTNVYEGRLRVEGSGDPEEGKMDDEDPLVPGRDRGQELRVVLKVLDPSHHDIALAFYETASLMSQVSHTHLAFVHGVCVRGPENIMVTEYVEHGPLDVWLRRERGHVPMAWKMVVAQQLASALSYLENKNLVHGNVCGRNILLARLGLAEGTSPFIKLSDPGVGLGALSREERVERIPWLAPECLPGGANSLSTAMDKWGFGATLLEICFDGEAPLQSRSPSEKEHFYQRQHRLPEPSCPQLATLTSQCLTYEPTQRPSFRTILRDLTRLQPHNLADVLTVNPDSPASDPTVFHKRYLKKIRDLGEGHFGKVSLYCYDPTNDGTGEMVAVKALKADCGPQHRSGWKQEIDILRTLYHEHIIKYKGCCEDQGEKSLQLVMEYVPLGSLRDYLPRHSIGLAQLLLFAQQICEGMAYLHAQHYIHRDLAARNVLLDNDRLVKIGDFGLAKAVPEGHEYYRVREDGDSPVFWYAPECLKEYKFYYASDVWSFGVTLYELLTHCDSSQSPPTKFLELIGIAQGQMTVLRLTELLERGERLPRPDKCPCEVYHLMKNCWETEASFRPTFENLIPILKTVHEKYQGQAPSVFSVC
METRIC NAME: IC50
Answer format: number, then unit.

**Q:** // output IC50; input O=C1NCCn2c(-c3c(F)cccc3F)nc(Nc3ccc(C(=O)N4CCOCC4)cc3)c21 [US20240246984, Compound 2.] ; system UniProtKB P29597
**A:** 200 pM

---

Molecular target: Tyrosine-protein kinase JAK2 (Homo sapiens)
Sequence (O60674 whole entry): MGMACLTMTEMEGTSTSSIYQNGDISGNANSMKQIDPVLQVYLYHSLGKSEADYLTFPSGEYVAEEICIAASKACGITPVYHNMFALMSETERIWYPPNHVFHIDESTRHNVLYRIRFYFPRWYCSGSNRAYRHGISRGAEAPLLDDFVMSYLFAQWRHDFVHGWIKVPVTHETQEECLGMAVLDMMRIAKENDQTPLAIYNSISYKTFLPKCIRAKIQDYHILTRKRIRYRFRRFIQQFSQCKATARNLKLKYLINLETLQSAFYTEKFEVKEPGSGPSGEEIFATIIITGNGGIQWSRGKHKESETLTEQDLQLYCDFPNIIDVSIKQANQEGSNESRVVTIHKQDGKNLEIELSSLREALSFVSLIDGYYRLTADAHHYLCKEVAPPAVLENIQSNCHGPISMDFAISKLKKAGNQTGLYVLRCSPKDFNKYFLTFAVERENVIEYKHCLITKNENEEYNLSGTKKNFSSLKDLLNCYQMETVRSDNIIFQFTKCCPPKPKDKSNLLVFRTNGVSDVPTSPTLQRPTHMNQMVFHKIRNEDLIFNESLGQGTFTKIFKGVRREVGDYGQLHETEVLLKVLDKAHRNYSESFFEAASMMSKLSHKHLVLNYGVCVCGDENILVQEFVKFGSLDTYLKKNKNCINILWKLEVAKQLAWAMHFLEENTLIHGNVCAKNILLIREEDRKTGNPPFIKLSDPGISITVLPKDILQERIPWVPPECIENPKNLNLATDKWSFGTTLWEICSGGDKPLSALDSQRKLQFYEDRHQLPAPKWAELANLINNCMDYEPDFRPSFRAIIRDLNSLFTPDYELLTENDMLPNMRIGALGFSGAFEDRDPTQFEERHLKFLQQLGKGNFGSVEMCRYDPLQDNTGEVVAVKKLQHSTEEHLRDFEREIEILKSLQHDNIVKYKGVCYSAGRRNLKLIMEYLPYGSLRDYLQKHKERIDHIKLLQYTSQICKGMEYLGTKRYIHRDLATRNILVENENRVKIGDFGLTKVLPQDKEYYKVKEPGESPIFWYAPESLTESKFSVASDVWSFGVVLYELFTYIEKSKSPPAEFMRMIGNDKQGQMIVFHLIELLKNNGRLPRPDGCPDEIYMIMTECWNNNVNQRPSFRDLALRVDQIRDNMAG
METRIC NAME: pIC50
Give bare numbers, as −log10 of the molar value.

**Q:** Supply recorded pIC50 for O=C1NCCn2c(-c3c(F)cccc3F)nc(Nc3ccc(C(=O)N4CCOCC4)cc3)c21 here.
**A:** 8.72
